Each entry below carries its recorded binding affinity ratio.
- system tested: HLA-A*0301 (human)
- measurement notes: competition with 125I-labelled standard peptide 941.12 for purified HLA, gel filtration
- condition info: scale: ratio

Below, each entry is followed by its recorded binding affinity ratio result.
> print(dat)
                                     binder  measurement
1  EIASKFSER (modifications not checked) [PSM 641 …]       0.0006
2  DVLLSYPNK (modifications not checked) [PSM 114 …]       0.0006
3  DALFDIESK (modifications not checked) [PSM 710 …]       0.0006
4  DIESKVDPSK (modifications not checked) [PSM 714 …]       0.0003
5  DTFPTDPIK (modifications not checked) [PAP 51 …]       0.0001
6  CSPSCPLER (modifications not checked) [PAP 347 …]        0.004

Now let's try a different one.
DMSLLKNR (modifications not checked) [PSA 98 DMSLLKNR] yielded binding affinity ratio of 0.0003
